measurement-target: UniProt:P02774
Sequence (P02774 17-474): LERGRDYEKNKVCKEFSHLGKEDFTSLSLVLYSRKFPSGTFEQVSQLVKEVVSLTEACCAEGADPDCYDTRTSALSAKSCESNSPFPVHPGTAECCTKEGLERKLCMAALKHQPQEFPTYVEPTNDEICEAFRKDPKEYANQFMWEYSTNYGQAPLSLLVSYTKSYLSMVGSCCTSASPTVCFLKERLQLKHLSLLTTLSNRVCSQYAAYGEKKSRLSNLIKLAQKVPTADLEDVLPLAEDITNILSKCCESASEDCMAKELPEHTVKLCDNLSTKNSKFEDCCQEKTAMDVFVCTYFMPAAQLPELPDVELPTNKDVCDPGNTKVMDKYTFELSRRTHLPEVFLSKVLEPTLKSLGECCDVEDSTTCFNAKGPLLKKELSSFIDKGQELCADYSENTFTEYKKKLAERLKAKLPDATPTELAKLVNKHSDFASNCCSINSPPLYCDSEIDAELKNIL
test-name: Screening of releasing reagent candidates: recovery of Vitamin D metabolites from spiked native serum pool (immunobead capture, LC-MS/MS)
Type: biochemical
Design: native serum pool and homogenized; from tissue; host or cells: native serum pool (spiked with vitamin D metabolites)
assay-setup: 45 µl pretreatment reagent at the concentration of the 1st table, FIGS. 2 to 5
observable: recovery of Vitamin D metabolites (25-OH D3, 25-OH D2, 24R,25-di-OH D3, 24R,25-di-OH D2)

{"columns": ["molecule", "test-value"],
 "data": [
  ["COC(=O)c1ccc(O)cc1 [PT14, Methyl-4-hydroxybenzoate]", "Lowest recoveries"],
  ["O=C(O)c1ccc(O)cc1O [PT7, 2,4-Dihydroxybenzoic acid]", "Highest recoveries"],
  ["COC(=O)c1ccc(O)cc1.[Na] [PT8, Methylparaben Sodium]", "Lowest recoveries"],
  ["O=C([O-])c1cccc(O)c1.[Na+] [PT20, 3-Hydroxybenzoic acid sodium salt]", "Highest recoveries"],
  ["O=C(O)c1cccc(O)c1 [PT5, 3-Hydroxybenzoic acid]", "Highest recoveries"],
  ["O=C([O-])c1ccccc1O.[Na+] [PT1, Sodium Salicylate, reference compound]", "Highest recoveries"],
  ["N.O=C(O)c1ccccc1O [PT2, Ammonium Salicylate]", "Highest recoveries"]
]}

----------
test-name: physchem
assay-setup: aqueous with cosolvent or surfactant or cyclodextrin
observable: solubility

{"columns": ["compound", "test-value"],
 "data": [
  ["CCOC(=O)c1cc(OCC)ccc1O [PT19, Ethyl-5-ethoxy-2-hydroxybenzoate]", "4 mM"],
  ["O=C(O)c1ccccc1O [PT12, Salicylic acid, reference compound]", "30 mM"],
  ["O=C([O-])c1cccc(O)c1.[Na+] [PT20, 3-Hydroxybenzoic acid sodium salt]", "2800 mM"],
  ["O=C(O)c1cccc(O)c1 [PT5, 3-Hydroxybenzoic acid]", "50 mM"],
  ["O=C(O)c1ccc(O)cc1O [PT7, 2,4-Dihydroxybenzoic acid]", "50 mM"],
  ["N.O=C(O)c1ccccc1O [PT2, Ammonium Salicylate]", "5600 mM"],
  ["CC(=O)Oc1ccccc1C(=O)O [PT10, Aspirin, reference compound]", "10 mM"],
  ["O=C(O)c1cc(/N=N/c2ccc(S(=O)(=O)Nc3ccccn3)cc2)ccc1O [PT11, Sulfasalazine, reference compound]", "9 mM"],
  ["O=C(O)c1ccc(C(F)(F)F)cc1O [PT22, 2-Hydroxy-4-trifluoromethylbenzoic acid]", "6 mM"],
  ["COC(=O)c1ccccc1O [PT16, Methyl Salicylate, reference compound]", "10 mM"],
  ["Cc1ccc(C(=O)O)c(O)c1 [PT6, 4-Methylsalicylic acid]", "20 mM"],
  ["O=C(O)c1ccc(O)c(C(=O)O)c1 [PT4, 4-Hydroxyisophthalic acid]", "1 mM"],
  ["O=C(Oc1ccccc1)c1ccccc1O [PT17, Phenyl Salicylate]", "0.9 mM"],
  ["Cc1cccc(C(=O)O)c1O [PT15, 3-Methylsalicylic acid]", "10 mM"],
  ["O=C([O-])c1ccccc1O.[Na+] [PT1, Sodium Salicylate, reference compound]", "5600 mM"],
  ["COc1ccccc1C(=O)O [PT9, 2-Methoxy-benzoic acid]", "30 mM"],
  ["O=C(OCCO)c1ccccc1O [PT3, Ethylen glycol monosalicylate]", "50 mM"],
  ["O=C(O)c1cc(-c2ccc(F)cc2F)ccc1O [PT18, Diflunisal, reference compound]", "0.4 mM"],
  ["Cc1ccc(O)c(C(=O)O)c1 [PT13, 2-Hydroxy-5-methylbenzoic acid]", "10 mM"]
]}

Origin of the recorded values: patent US20230251277A1
